Origin of the recorded values: patent US20110065782A1

target: UniProt:P40136
Sequence (P40136 34-800 limits assumed): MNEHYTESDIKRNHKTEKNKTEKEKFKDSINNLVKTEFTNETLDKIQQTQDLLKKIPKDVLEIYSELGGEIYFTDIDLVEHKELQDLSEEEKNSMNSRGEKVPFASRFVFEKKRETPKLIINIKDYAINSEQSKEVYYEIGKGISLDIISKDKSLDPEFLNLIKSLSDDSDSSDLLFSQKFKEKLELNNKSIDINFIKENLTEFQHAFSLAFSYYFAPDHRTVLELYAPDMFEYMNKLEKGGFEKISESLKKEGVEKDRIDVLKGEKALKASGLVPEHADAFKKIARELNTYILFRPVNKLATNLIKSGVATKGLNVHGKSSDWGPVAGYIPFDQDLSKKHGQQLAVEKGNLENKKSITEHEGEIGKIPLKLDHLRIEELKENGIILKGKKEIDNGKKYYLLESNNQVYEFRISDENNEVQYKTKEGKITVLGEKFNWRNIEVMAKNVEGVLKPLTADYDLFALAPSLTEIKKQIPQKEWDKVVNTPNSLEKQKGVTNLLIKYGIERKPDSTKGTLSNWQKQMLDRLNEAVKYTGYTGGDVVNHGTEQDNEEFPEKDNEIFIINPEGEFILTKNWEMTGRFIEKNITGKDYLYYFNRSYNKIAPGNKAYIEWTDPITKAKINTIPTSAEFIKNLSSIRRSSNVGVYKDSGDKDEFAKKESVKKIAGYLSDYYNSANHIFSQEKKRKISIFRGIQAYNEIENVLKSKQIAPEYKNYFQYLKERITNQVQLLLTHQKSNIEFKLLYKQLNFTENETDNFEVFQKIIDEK
measurement-type: IC50

Please tell me: IC50 of O=C(Nc1ccc(Cl)c(Cl)c1)Nc1cc(-c2ccccc2)sc1C(=O)O , system UniProt:P40136?
2000 to 3000 nM
